# Test system: c-myc G-quadruplex (DNA, G4) TGAGGGTGGTGAGGGTGGGGAAGG
# experimental details: fluorescence titration, plate reader
# condition description: 2 nM compound; site 1 of 2
property measured: Kd1 (µM)

O=C(CC(=O)Nc1ccccc1)Nc1ccccc1	4.61

[1] Cc1ccc(NC(=S)Nc2ccccc2)cc1
[2] CC(C)=NOC(=O)Nc1ccc(Cl)cc1
[3] Oc1ccccc1NCCNc1ccccc1O
QUERY: Returns the items ordered by Kd1, from maximum to minimum. In your reply, arrange the labels in the requested order.
RESULT: 3, 1, 2

[P] O=S(=O)(NCCNS(=O)(=O)c1ccccc1)c1ccccc1
[Q] CC(CCN=Cc1ccccc1O)N=Cc1ccccc1O (stereo not shown)
QUERY: Lab log: flag the item ( P or Q ) with the smaller Kd1 figure. State the label of the item chosen.
RESULT: P
(P: 0.002 µM, Q: 3.76 µM)
